Cited source for all entries: patent US20200405852A1

IC50 of classical complement pathway inhibition (commercial CP activation assay) values for the binders below.
- System: T1, activated human complement C1s (human, UniProt P09871 16-688)
- T1 sequence: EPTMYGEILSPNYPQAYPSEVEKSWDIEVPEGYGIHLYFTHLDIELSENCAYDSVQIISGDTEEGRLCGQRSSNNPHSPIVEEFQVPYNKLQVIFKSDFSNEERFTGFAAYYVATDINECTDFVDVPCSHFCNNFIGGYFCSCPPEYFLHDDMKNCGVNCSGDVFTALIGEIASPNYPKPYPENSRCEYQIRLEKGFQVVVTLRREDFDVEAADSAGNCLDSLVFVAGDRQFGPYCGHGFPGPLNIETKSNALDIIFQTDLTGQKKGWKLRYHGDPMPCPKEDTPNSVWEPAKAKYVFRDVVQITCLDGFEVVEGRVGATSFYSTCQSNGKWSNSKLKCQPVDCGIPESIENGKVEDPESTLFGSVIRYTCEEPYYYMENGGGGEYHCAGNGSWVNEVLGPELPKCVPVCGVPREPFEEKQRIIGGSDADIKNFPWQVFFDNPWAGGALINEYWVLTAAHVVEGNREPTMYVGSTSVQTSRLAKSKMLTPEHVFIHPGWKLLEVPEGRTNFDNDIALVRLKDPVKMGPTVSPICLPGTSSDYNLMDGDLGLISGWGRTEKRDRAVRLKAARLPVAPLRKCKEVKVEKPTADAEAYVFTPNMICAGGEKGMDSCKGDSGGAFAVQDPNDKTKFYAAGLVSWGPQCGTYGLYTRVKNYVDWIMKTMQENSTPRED
- Assay Explanation: cell-based or functional assay
Write the number in nM without appending the unit.

humanized TNT005 variant VH variant 3+Vk variant 5 (antibody, V domains shown, also called VH variant 3 + VL variant 5) VH: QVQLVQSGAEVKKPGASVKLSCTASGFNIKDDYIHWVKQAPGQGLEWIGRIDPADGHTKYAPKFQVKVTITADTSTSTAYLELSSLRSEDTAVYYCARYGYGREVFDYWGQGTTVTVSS VL: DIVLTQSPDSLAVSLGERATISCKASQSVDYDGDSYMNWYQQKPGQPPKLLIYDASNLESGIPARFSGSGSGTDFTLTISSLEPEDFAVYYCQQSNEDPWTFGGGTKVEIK    1.38

Now consider a different binder.
Q: Could you share which IC50 of classical complement pathway inhibition (commercial CP activation assay) value was measured for TNT005.001 (antibody, V domains shown, Unlabelled parental antibody; also called parental TNT005 (not biotinylated)) VH: EVQLQQSGAELVRPGASVKLSCTASGFNIKDDYIHWVKQRPEQGLEWIGRIDPADGHTKYAPKFQVKATITADTSSNTAYLQLSSLTSEDTAVYYCARYGYGREVFDYWGQGTTLTVSS VL: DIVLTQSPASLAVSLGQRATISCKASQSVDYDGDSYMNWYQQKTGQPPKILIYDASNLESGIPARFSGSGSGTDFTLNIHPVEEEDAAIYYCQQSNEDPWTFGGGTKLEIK ?
Result: 1.06
